Measured pKi accompanies every entry in the list below.
Test: Inhibition of HCV3a NS3/4A protease by time-resolved fluorescence assay
Design: species or system Hepatitis C virus subtype 3a
Conceptually, pKi converts a concentration in mol/L into minus its log10.

[in] Look up pKi: `C=C[C@@H]1C[C@]1(NC(=O)[C@@H]1C[C@@H]2CN1C(=O)[C@H](C1CCCCC1)NC(=O)OCC(C)(C)CCCc1cc3c(cc(-c4ccc(F)cc4)nc3cc1OC)O2)C(=O)NS(=O)(=O)C1CC1`
[out] 7.54

[in] Can you look up the measured pKi of `C=C[C@@H]1C[C@]1(NC(=O)[C@@H]1C[C@@H]2CN1C(=O)[C@H](C1CCCC1)NC(=O)OCC(C)(C)CCCc1cc3c(nc4ccc(Cl)cc4c3cc1OC)O2)C(=O)NS(=O)(=O)C1CC1` for me?
[out] 7.44

====

log10(concentration at 4 h) overview
Assay: Drug level in Sprague-Dawley rat liver at 5 mg/kg, po after 4 hrs
Assay type: ADME, organism-based
Design: dose 5 mg/kg, route oral
Details: read-out: Drug uptake
Quick note: numbers are log10 of concentration at 4 h, with µM as the unit.

Example cases with answers are listed next.
C=C[C@@H]1C[C@]1(NC(=O)[C@@H]1C[C@@H]2CN1C(=O)[C@H](C1CCCC1)NC(=O)OCC(C)(C)CCCc1cc3c(nc4cc(C)ccc4c3cc1OC)O2)C(=O)NS(=O)(=O)C1CC1 :: 1.20
C=C[C@@H]1C[C@]1(NC(=O)[C@@H]1C[C@@H]2CN1C(=O)[C@H](C1CCCCC1)NC(=O)OCC(C)(C)CCCc1cc3c(cc(OCC)nc3cc1OC)O2)C(=O)NS(=O)(=O)C1CC1 :: 1.60

[in] Quick one: log10(concentration at 4 h) for `C=C[C@@H]1C[C@]1(NC(=O)[C@@H]1C[C@@H]2CN1C(=O)[C@H](C1CCCCC1)NC(=O)OCC(C)(C)CCCc1cc3c(cc(-c4ccccc4)nc3cc1OC)O2)C(=O)NS(=O)(=O)C1CC1` ?
[out] 1.00

[in] I am curious: what log10(concentration at 4 h) value has been reported for `C=C[C@@H]1C[C@]1(NC(=O)[C@@H]1C[C@@H]2CN1C(=O)[C@H](C1CCCC1)NC(=O)OCC(C)(C)CCCc1cc3c(cc(OCc4ncco4)nc3cc1OC)O2)C(=O)NS(=O)(=O)C1CC1` ?
[out] 0.41

[in] Reported log10(concentration at 4 h), compound `C=C[C@@H]1C[C@]1(NC(=O)[C@@H]1C[C@@H]2CN1C(=O)[C@H](C1CCCCC1)NC(=O)OCC(C)(C)CCCc1cc3c(cc4nccn4c3cc1OC)O2)C(=O)NS(=O)(=O)C1CC1` : ____
[out] -0.10

[in] Any idea what log10(concentration at 4 h) was measured for `C=C[C@@H]1C[C@]1(NC(=O)[C@@H]1C[C@@H]2CN1C(=O)[C@H](C1CCCCC1)NC(=O)OCC(C)(C)CCCc1cc3c(cc(OC)nc3cc1OC)O2)C(=O)NS(=O)(=O)C1CC1` ?
[out] 0.73

[in] I am curious: what log10(concentration at 4 h) value has been reported for `C=C[C@@H]1C[C@]1(NC(=O)[C@@H]1C[C@@H]2CN1C(=O)[C@H](C1CCCCC1)NC(=O)OCC(C)(C)CCCc1cc3c(cc(N4CCCCC4)nc3cc1OC)O2)C(=O)NS(=O)(=O)C1CC1` ?
[out] -1.00

[in] GET /values?readout=log10(concentration at 4 h)&item= `C=C[C@@H]1C[C@]1(NC(=O)[C@@H]1C[C@@H]2CN1C(=O)[C@H](C1CCCC1)NC(=O)OCC(C)(C)CCCc1cc3c(nc4cc(C#N)ccc4c3cc1OC)O2)C(=O)NS(=O)(=O)C1CC1`
[out] 0.88

[in] Sample `C=C[C@@H]1C[C@]1(NC(=O)[C@@H]1C[C@@H]2CN1C(=O)[C@H](C1CCCC1)NC(=O)OCC(C)(C)CCCc1cc3c(nc4cc(OC)ccc4c3cc1OC)O2)C(=O)NS(=O)(=O)C1CC1` — what was its log10(concentration at 4 h)?
[out] 1.54

[in] Query: log10(concentration at 4 h); subject: `C=C[C@@H]1C[C@]1(NC(=O)[C@@H]1C[C@@H]2CN1C(=O)[C@H](C1CCCCC1)NC(=O)OCC(C)(C)CCCc1cc3c(cc(OC4CCCC4)nc3cc1OC)O2)C(=O)NS(=O)(=O)C1CC1`
[out] 0.66

====

// reported pKi per item
Assay: Inhibition of HCV1b BK NS3/4A protease expressed in Escherichia coli after 1 hr by time-resolved fluorescence assay
Design: species or system Hepatitis C virus (isolate BK)
Hey, just a heads up that pKi is the negative log base 10 of the concentration in molar.

C=C[C@@H]1C[C@]1(NC(=O)[C@@H]1C[C@@H]2CN1C(=O)[C@H](C1CCCCC1)NC(=O)OCC(C)(C)CCCc1cc3c(cc(OC)nc3cc1OC)O2)C(=O)NS(=O)(=O)C1CC1 :: 10.40
C=C[C@@H]1C[C@]1(NC(=O)[C@@H]1C[C@@H]2CN1C(=O)[C@H](C1CCCC1)NC(=O)OCC(C)(C)CCCc1cc3c(cc(OCc4ncn(C)n4)nc3cc1OC)O2)C(=O)NS(=O)(=O)C1CC1 :: 10.52
C=C[C@@H]1C[C@]1(NC(=O)[C@@H]1C[C@@H]2CN1C(=O)[C@H](C1CCCCC1)NC(=O)OCC(C)(C)CCCc1cc3c(cc(N(C)C(=O)OCC)nc3cc1OC)O2)C(=O)NS(=O)(=O)C1CC1 :: 10.52
C=C[C@@H]1C[C@]1(NC(=O)[C@@H]1C[C@@H]2CN1C(=O)[C@H](C1CCCCC1)NC(=O)OCC(C)(C)CCCc1ccc3c(c1)c(cc1nccn13)O2)C(=O)NS(=O)(=O)C1CC1 :: 10.10
C=C[C@@H]1C[C@]1(NC(=O)[C@@H]1C[C@@H]2CN1C(=O)[C@H](C1CCCC1)NC(=O)OCC(C)(C)CCCc1cc3c(cc(OCC)nc3cc1OC)O2)C(=O)NS(=O)(=O)C1CC1 :: 10.52
C=C[C@@H]1C[C@]1(NC(=O)[C@@H]1C[C@@H]2CN1C(=O)[C@H](C1CCCCC1)NC(=O)OCC(C)(C)CCCc1cc3c(cc4nccn4c3cc1OC)O2)C(=O)NS(=O)(=O)C1CC1 :: 10.40
C=C[C@@H]1C[C@]1(NC(=O)[C@@H]1C[C@@H]2CN1C(=O)[C@H](C1CCCCC1)NC(=O)OCC(C)(C)CCCc1cc3c(cc(O)nc3cc1OC)O2)C(=O)NS(=O)(=O)C1CC1 :: 10.15
C=C[C@@H]1C[C@]1(NC(=O)[C@@H]1C[C@@H]2CN1C(=O)[C@H](C1CCCC1)NC(=O)OCC(C)(C)CCCc1cc3c(cc(OCc4csc(C)n4)nc3cc1OC)O2)C(=O)NS(=O)(=O)C1CC1 :: 10.05

[in] // lookup pKi for `C=C[C@@H]1C[C@]1(NC(=O)[C@@H]1C[C@@H]2CN1C(=O)[C@H](C1CCCCC1)NC(=O)OCC(C)(C)CCCc1cc3c(cc(-c4ccc(OC)cc4)nc3cc1OC)O2)C(=O)NS(=O)(=O)C1CC1`
[out] 10.15

[in] So what's the measured pKi for this one? `C=C[C@@H]1C[C@]1(NC(=O)[C@@H]1C[C@@H]2CN1C(=O)[C@H](C1CCCCC1)NC(=O)OCC(C)(C)CCCc1cc3c(cc(-c4ccccc4)nc3cc1OC)O2)C(=O)NS(=O)(=O)C1CC1`
[out] 10.30

====

Assay: Inhibition of HCV3a NS3/4A protease by time-resolved fluorescence assay
Design: species or system Hepatitis C virus subtype 3a
measurement_name: Ki (nM)
Unit nM implied. Number only.

C=C[C@@H]1C[C@]1(NC(=O)[C@@H]1C[C@@H]2CN1C(=O)[C@H](C1CCCCC1)NC(=O)OCC(C)(C)CCCc1cc3c(cc(-c4ccccc4OC)nc3cc1OC)O2)C(=O)NS(=O)(=O)C1CC1 :: 62
C=C[C@@H]1C[C@]1(NC(=O)[C@@H]1C[C@@H]2CN1C(=O)[C@H](C1CCCC1)NC(=O)OCC(C)(C)CCCc1cc3c(nc4cc(F)ccc4c3cc1OC)O2)C(=O)NS(=O)(=O)C1CC1 :: 0.9
C=C[C@@H]1C[C@]1(NC(=O)[C@@H]1C[C@@H]2CN1C(=O)[C@H](C1CCCCC1)NC(=O)OCC(C)(C)CCCc1cc3c(cc(OC)nc3cc1OC)O2)C(=O)NS(=O)(=O)C1CC1 :: 4.1

[in] What does the record list as Ki for `C=C[C@@H]1C[C@]1(NC(=O)[C@@H]1C[C@@H]2CN1C(=O)[C@H](C1CCCC1)NC(=O)OCC(C)(C)CCCc1cc3c(nc4ccccc4c3cc1OC)O2)C(=O)NS(=O)(=O)C1CC1` ?
[out] 1.7
